Provenance of the data: patent US20240124417A1

Let's look at some molecules and their measured pIC50.
# system: PD-1/PD-L1 (Homo sapiens, UniProt Q9NZQ7)
# Construct: TVMV protease site linker (C); made in house; host or cells: HEK293T cells
# Sequence (Q9NZQ7 18-239): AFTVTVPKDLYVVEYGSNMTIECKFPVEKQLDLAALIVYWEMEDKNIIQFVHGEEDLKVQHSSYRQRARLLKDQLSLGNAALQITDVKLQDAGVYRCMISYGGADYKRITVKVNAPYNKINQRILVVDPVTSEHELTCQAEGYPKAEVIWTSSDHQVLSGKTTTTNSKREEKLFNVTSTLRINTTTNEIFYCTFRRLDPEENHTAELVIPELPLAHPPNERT
# experimentDescription: PD-1/PD-L1 Homogenous Time-Resolved Fluorescence (HTRF) binding assay
# measurementConditions: PD-L1-His 10 nM, PD-1-Ig 20 nM
pIC50: −log10 of the molar value.
measurementName: pIC50

molecule="CC(=O)NC1CCN(CCCOc2cccc(-c3cccc(COc4cc(OCc5cncc(C#N)c5)c(CNCC(C)c5nnn[nH]5)cc4Cl)c3C)c2C)CC1 (stereo not drawn)" measurementname=pIC50 endpointvalue=9.15
molecule=Cc1c(COc2cc(OCc3cncc(C#N)c3)c(CNCc3cc(C)n(C)n3)cc2Cl)cccc1-c1cccc(OCCCN2CC[C@@H](O)C2)c1C measurementname=pIC50 endpointvalue=8.13
molecule="Cc1c(COc2cc(OCc3cncc(C#N)c3)c(CN3CCC(c4nnn[nH]4)C3)cc2Cl)cccc1-c1cccc(OCCCN2CC[C@@H](O)C2)c1C (stereo partly drawn)" measurementname=pIC50 endpointvalue=8.72
molecule=Cc1c(COc2cc(OCc3cncc(C#N)c3)c(CNCc3cn[nH]c3)cc2Cl)cccc1-c1cccc(OCCCN2CC[C@@H](O)C2)c1C measurementname=pIC50 endpointvalue=8.26
molecule="Cc1c(COc2cc(OCc3cncc(C#N)c3)c(CN3CCc4[nH]ncc4C3)cc2Cl)cccc1-c1cccc(OCC2CCCN(C)C2)c1Cl (stereo not drawn)" measurementname=pIC50 endpointvalue=9.05
molecule="Cc1c(COc2cc(OCc3cncc(C#N)c3)c(CN3CCCCC3c3cnn(C)c3)cc2Cl)cccc1-c1cccc(OCC2CCCN(C)C2)c1Cl (stereo not drawn)" measurementname=pIC50 endpointvalue=8.89

----------
# system: PD-1/PD-L1 (Homo sapiens, UniProt Q9NZQ7)
# Construct: TVMV protease site linker (C); made in house; host or cells: HEK293T cells
# experimentDescription: PD-1/PD-L1 Homogenous Time-Resolved Fluorescence (HTRF) binding assay
# measurementConditions: PD-L1-His 10 nM, PD-1-Ig 20 nM
IC50 vs 4 nM: less than gives Met; not less than gives Not met.

compound="Cc1c(COc2cc(OCc3cncc(C#N)c3)c(CNCc3nc4ccccc4[nH]3)cc2Cl)cccc1-c1cccc(OCC2CCCN(C)C2)c1Cl (stereo not drawn)" assignedlabel=Met
compound="Cc1c(COc2cc(OCc3cncc(C#N)c3)c(CNCc3cccnc3Cl)cc2Cl)cccc1-c1cccc(OCC2CCCN(C)C2)c1Cl (stereo not drawn)" assignedlabel="Not met"
compound=Cc1c(COc2cc(OCc3cncc(C#N)c3)c(CN(C)Cc3nn(C)c4ccccc34)cc2Cl)cccc1-c1cccc(OCCCN2CC[C@@H](O)C2)c1C assignedlabel="Not met"
compound=Cc1c(COc2cc(OCc3cncc(C#N)c3)c(CNCc3ncc[nH]3)cc2Cl)cccc1-c1cccc(OCCCN2CCC(O)(CO)CC2)c1Cl assignedlabel=Met
compound=Cc1c(COc2cc(OCc3cncc(C#N)c3)c(CNCc3ccnc(C#N)n3)cc2Cl)cccc1-c1cccc(OCCCN2CCC(O)(CO)CC2)c1Cl assignedlabel=Met
compound=Cc1n[nH]c(C)c1CN(C)Cc1cc(Cl)c(OCc2cccc(-c3cccc(OCCCN4CC[C@@H](O)C4)c3C)c2C)cc1OCc1cncc(C#N)c1 assignedlabel=Met
compound="Cc1nc(CNCc2cc(Cl)c(OCc3cccc(-c4cccc(OCC5CCCN(C)C5)c4Cl)c3C)cc2OCc2cncc(C#N)c2)no1 (stereo not drawn)" assignedlabel=Met
compound=Cc1c(COc2cc(OCc3cncnc3)c(CNCc3ncc[nH]3)cc2Cl)cccc1-c1cccc(OCCCN2CC[C@@H](O)C2)c1C assignedlabel=Met
compound=Cc1c(COc2cc(OCc3cncc(C#N)c3)c(CN(C)Cc3cccnn3)cc2Cl)cccc1-c1cccc(OCCCN2CC[C@@H](O)C2)c1C assignedlabel=Met
compound=Cc1c(COc2cc(OCc3cncc(C#N)c3)c(CN(C)Cc3cncs3)cc2Cl)cccc1-c1cccc(OC2CCN(C)CC2)c1Cl assignedlabel="Not met"
compound="Cc1c(COc2cc(OCc3cncc(C#N)c3)c(CNCc3ccc4c(N)n[nH]c4c3)cc2Cl)cccc1-c1cccc(OCC2CCCN(C)C2)c1Cl (stereo not drawn)" assignedlabel=Met
compound=Cc1c(COc2cc(OCc3cncc(C#N)c3)c(CN(C)Cc3nc4ccccc4n3Cc3ccccc3)cc2Cl)cccc1-c1cccc(OCCCN2CC[C@@H](O)C2)c1C assignedlabel="Not met"
compound="CC(=O)NC1CCN(CCCOc2cccc(-c3cccc(COc4cc(OCc5cncc(C#N)c5)c(CN5CCCCC5c5ncc[nH]5)cc4Cl)c3C)c2C)CC1 (stereo not drawn)" assignedlabel=Met
compound="Cc1c(COc2cc(OCc3cncc(C#N)c3)c(CN(C)C(C)c3nnn[nH]3)cc2Cl)cccc1-c1cccc(OCCCN2CC[C@@H](O)C2)c1C (stereo partly drawn)" assignedlabel=Met
compound=Cc1c(COc2cc(OCc3cncc(C#N)c3)c(CNCc3ncc(-c4ccccc4)o3)cc2Cl)cccc1-c1cccc(OCCCN2CC[C@@H](O)C2)c1C assignedlabel="Not met"
compound=CC(=O)NC1CCN(CCCOc2cccc(-c3cccc(COc4cc(OCc5cncc(C#N)c5)c(CN(C)CCc5nn[nH]n5)cc4Cl)c3C)c2C)CC1 assignedlabel=Met
compound="Cc1nc2c(s1)CN(Cc1cc(Cl)c(OCc3cccc(-c4cccc(OCC5CCCN(C)C5)c4Cl)c3C)cc1OCc1cncc(C#N)c1)CC2 (stereo not drawn)" assignedlabel="Not met"
compound="Cc1c(COc2cc(OCc3cncc(C#N)c3)c(CNC(C)(C)c3ncon3)cc2Cl)cccc1-c1cccc(OCC2CCCN(C)C2)c1Cl (stereo not drawn)" assignedlabel="Not met"
compound="Cc1c(COc2cc(OCc3cncc(C#N)c3)c(CN3CCc4[nH]cnc4C3)cc2Cl)cccc1-c1cccc(OCC2CCCN(C)C2)c1Cl (stereo not drawn)" assignedlabel=Met
compound=Cc1ncsc1CCNCc1cc(Cl)c(OCc2cccc(-c3cccc(OCCCN4CC[C@@H](O)C4)c3C)c2C)cc1OCc1cncc(C#N)c1 assignedlabel=Met
compound="Cc1c(COc2cc(OCc3cncc(C#N)c3)c(CNCc3ncn[nH]3)cc2Cl)cccc1-c1cccc(OCC2CCCN(C)C2)c1Cl (stereo not drawn)" assignedlabel=Met
compound="Cc1c(COc2cc(OCc3cncc(C#N)c3)c(CNC3CCc4[nH]ncc4C3)cc2Cl)cccc1-c1cccc(OCC2CCCN(C)C2)c1Cl (stereo not drawn)" assignedlabel=Met
